value kind: melting point

Reported melting point ( COCC(=O)O[C@@H]1[C@@H](c2ccccc2)Nc2c(ccn3c(C)c(C)nc23)[C@@H]1OC [Example 40] ) = 73 to 75 °C

Per the records, this compound ( COCCO[C@@H]1c2ccn3c(C)c(C)nc3c2N[C@H](c2ccccc2)[C@H]1OC(=O)c1ccc([N+](=O)[O-])cc1 [Example 12] ) has melting point equal to 133 to 134 °C

So for CCN(CC)C(=O)O[C@@H]1[C@@H](c2ccccc2)Nc2c(ccn3c(C)c(C)nc23)[C@@H]1OC [Example 42] , the logged melting point turned out to be 97 to 98 °C

Short answer for COCCO[C@@H]1c2ccn3c(C)c(C)nc3c2N[C@H](c2ccccc2)[C@H]1OC(=O)CN(C)C [Example 20] : melting point was 114 to 115 °C

Value of melting point reported for the compound COCCO[C@@H]1c2ccn3c(C)c(C)nc3c2N[C@H](c2ccccc2)[C@H]1OC(=O)OC1CC(C)CCC1C(C)C (stereo partly shown) [Example 26] is 127 to 129 °C

So, COC(=O)O[C@@H]1[C@@H](c2ccccc2)Nc2c(ccn3c(C)c(C)nc23)[C@@H]1OC [Example 44] ? Its melting point was 90 to 91 °C

Continuing:
So for CO[C@@H]1c2ccn3c(C)c(C)nc3c2N[C@H](c2ccccc2)[C@H]1OC(=O)c1ccccc1 [Example 47] , the logged melting point turned out to be 92 to 93 °C

Memo: CCN(CC)C(=O)O[C@@H]1[C@@H](c2ccccc2)Nc2c(ccn3c(C)c(C)nc23)[C@H]1OC [Example 41] , reported melting point: 123 to 124 °C

Just so you know, measured melting point for CO[C@@H]1c2ccn3c(C)c(C)nc3c2N[C@H](c2ccccc2)[C@H]1OC(=O)c1cccc([N+](=O)[O-])c1 [Example 17] came out at 80 to 84 °C

Entry CO[C@@H]1c2ccn3c(C)c(C)nc3c2N[C@H](c2ccccc2)[C@H]1OC(C)=O [Example 3] , melting point reported as 197 to 199 °C

Data point: COCCO[C@@H]1c2ccn3c(C)c(C)nc3c2N[C@H](c2ccccc2)[C@H]1OC(=O)OC [Example 8] ; melting point = 176 to 177 °C

The compound COCCO[C@@H]1c2ccn3c(C)c(C)nc3c2N[C@H](c2ccccc2)[C@H]1OC(=O)c1ccc(OC)cc1 [Example 19] showed melting point equal to 150 to 151 °C

Lab note: measured melting point of COCCO[C@H]1c2ccn3c(C)c(C)nc3c2N[C@H](c2ccccc2)[C@H]1OC(=O)c1ccc(OC)cc1 [Example 18] was 82 to 83 °C
